Would you kindly list K ass for each of these compounds?
ASSAY SYSTEM: Coagulation factor X (Homo sapiens) (UniProt P00742)
Sequence (P00742 41-179 limits assumed): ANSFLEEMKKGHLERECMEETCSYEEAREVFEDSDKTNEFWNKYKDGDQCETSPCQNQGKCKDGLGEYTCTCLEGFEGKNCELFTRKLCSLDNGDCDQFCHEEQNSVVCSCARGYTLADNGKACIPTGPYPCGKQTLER
Sequence (P00742 235-488 limits assumed): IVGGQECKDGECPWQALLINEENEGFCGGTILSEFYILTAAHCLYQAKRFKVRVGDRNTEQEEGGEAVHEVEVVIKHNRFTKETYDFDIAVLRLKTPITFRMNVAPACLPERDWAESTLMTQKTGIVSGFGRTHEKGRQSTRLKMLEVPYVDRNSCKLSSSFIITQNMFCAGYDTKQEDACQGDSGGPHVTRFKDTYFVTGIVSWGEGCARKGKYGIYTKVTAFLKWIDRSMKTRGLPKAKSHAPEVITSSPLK
METHOD DESCRIPTION: Apparent association constant against coagulation factor X

Task: Entry `Cc1ccc(C(=O)Nc2ccccc2NC(=O)c2ccc(C(C)(C)C)cc2)cc1` , system Coagulation factor X (Homo sapiens) (UniProt P00742): what K ass was measured?
Output: 280000 l M-1

Task: Same again, this time with `COc1ccc(C(=O)Nc2ccccc2NC(=O)c2ccc(OC)cc2Cl)cc1`
Output: 710000 l M-1

Task: Subsequent entry: `CC(C)(C)c1ccc(C(=O)Nc2ccccc2NC(=O)c2ccccc2)cc1`
Output: 380000 l M-1

Task: Item: `COc1ccc(C(=O)Nc2ccc(O)cc2NC(=O)c2ccc(N(C)C)cc2)cc1`
Output: 2.55e+07 l M-1

Task: `COc1ccc(C(=O)Nc2ccccc2NC(=O)c2ccc(N(C)C)cc2)cc1` ?
Output: 1.69e+07 l M-1

Task: Follow-up item: `COc1ccc(C(=O)Nc2ccccc2NC(=O)c2ccc(SC)cc2)cc1`
Output: 1.63e+06 l M-1

Task: Check `COc1ccc(C(=O)Nc2ccccc2NC(=O)c2ccc(Oc3ccccc3)cc2)cc1` too.
Output: 290000 l M-1

Task: Also, `COc1ccc(C(=O)Nc2ccccc2NC(=O)c2ccc(OC(C)C)cc2)cc1` please.
Output: 1.19e+06 l M-1

Task: Repeat with `COc1ccc(C(=O)Nc2ccc(Cl)cc2NC(=O)c2ccc(OC)cc2)cc1`
Output: 420000 l M-1

Task: # repeat for `COc1ccc(C(=O)Nc2ccccc2NC(=O)c2ccc(C(C)C)cc2)cc1`
Output: 4.91e+06 l M-1

Task: Record: `COc1ccc(C(=O)N(C)c2ccccc2N(C)C(=O)c2ccc(OC)cc2)cc1`
Output: 0 l M-1

Task: Item: `C=Cc1ccc(C(=O)Nc2ccccc2NC(=O)c2ccc(C(C)(C)C)cc2)cc1`
Output: 3.05e+06 l M-1

Task: Param item: `C=Cc1cccc(C(=O)Nc2ccccc2NC(=O)c2ccc(C(C)(C)C)cc2)c1`
Output: 560000 l M-1

Task: Same thing, different compound: `COc1ccc(C(=O)Nc2ccccc2NC(=O)c2ccc(S(=O)(=O)N(C)C)cc2)cc1`
Output: 660000 l M-1

Task: Here is the next compound: `COc1ccc(C(=O)Nc2cccc(O)c2NC(=O)c2ccc(OC)cc2)cc1`
Output: 450000 l M-1

Task: Also check `COc1ccc(C(=O)Nc2cccc(NC(=O)c3ccc(OC)cc3)c2)cc1`
Output: 0 l M-1

Task: Check `CC(C)(C)c1ccc(C(=O)Nc2ccccc2NC(=O)c2ccc(F)cc2)cc1` too.
Output: 510000 l M-1

Task: Ok, now `CCOc1ccc(C(=O)Nc2ccccc2NC(=O)c2ccc(OC)cc2)cc1`
Output: 640000 l M-1

Task: Note, next up: `COc1ccc(C(=O)Nc2ccc(C(=O)O)cc2NC(=O)c2ccc(C(C)(C)C)cc2)cc1`
Output: 1.28e+07 l M-1

Task: Ok, now `COc1ccc(C(=O)Nc2ccc(C(=O)O)cc2NC(=O)c2ccc(OC)cc2)cc1`
Output: 320000 l M-1

Task: Now try `COc1ccc(C(=O)Nc2ccccc2NC(=O)c2ccc(C(=O)C(F)(F)F)cc2)cc1` .
Output: 10000 l M-1

Task: Entry `COc1ccc(C(=O)Nc2cc(O)ccc2NC(=O)c2ccc(C(C)(C)C)cc2)cc1` please
Output: 3.56e+06 l M-1

Task: And then `CCc1ccc(C(=O)Nc2cc(O)ccc2NC(=O)c2ccc(OC)cc2)cc1` , what is it?
Output: 2.68e+06 l M-1

Task: How about this compound: `COc1ccc(C(=O)Nc2ccccc2NC(=O)c2ccc(OC)cc2OC)cc1`
Output: 520000 l M-1

Task: Same again, this time with `CCCCCCOc1ccc(C(=O)Nc2ccccc2NC(=O)c2ccc(OC)cc2)cc1`
Output: 0 l M-1

Task: Another: `COc1ccc(C(=O)Nc2ccccc2NC(=O)c2ccc(OC(C)(C)C)cc2)cc1`
Output: 820000 l M-1

Task: Further, for `COc1ccc(C(=O)Nc2ccc(C)cc2NC(=O)c2ccc(OC)cc2)cc1` ?
Output: 450000 l M-1

Task: Another compound to look at: `CC(C)(C)c1ccc(C(=O)Nc2ccccc2NC(=O)c2cccc(F)c2)cc1`
Output: 400000 l M-1

Task: Could you do the same for `COc1ccc(C(=O)Nc2cc(C(=O)O)ccc2NC(=O)c2ccc(C(C)(C)C)cc2)cc1` , please?
Output: 3.99e+06 l M-1

Task: Also need `COc1ccc(C(=O)Nc2ccccc2NC(=O)c2ccc(C(C)(C)OC)cc2)cc1` , thanks.
Output: 2.35e+06 l M-1

Task: Further, for `COc1ccc(C(=O)Nc2ccc(NS(C)(=O)=O)cc2NC(=O)c2ccc(C(C)(C)C)cc2)cc1` ?
Output: 7.65e+06 l M-1

Task: // next record `COc1ccc(C(=O)Nc2ccccc2NC(=O)c2ccc(OC)cc2)cc1`
Output: 840000 l M-1

Task: Same again, this time with `COc1ccc(C(=O)Nc2ccc(O)cc2NC(=O)c2ccc(OC)cc2)cc1`
Output: 640000 l M-1

Task: Check COc1ccc(C(=O)Nc2ccccc2NC(=O)c2ccc([S+](C)[O-])cc2)cc1 (stereo not given) too.
Output: 430000 l M-1

Task: Note, next up: `COc1cccc(C(=O)Nc2ccccc2NC(=O)c2ccc(C(C)(C)C)cc2)c1`
Output: 20000 l M-1
